All values here come from ChEMBL document CHEMBL2094269.

Field: IC50. Provide a value for each of the molecules that follow.
measurement_protocol: DNDI: Cytotoxicity against human MRC-5 lung fibroblast cells.
protocol_conditions: IC50

The molecule identified as `Cc1ccc(/C(=C\CCNCCN)c2ccccc2)cc1` registered its IC50 at > 20.8 µM

The molecule identified as Cc1conc1NC(c1cccs1)c1ccc2cccnc2c1O (configuration not stated) registered its IC50 at > 20.8 µM

The molecule identified as `O=C(NO)c1sc2ccccc2c1Cl` registered its IC50 at > 41.7 µM

The molecule identified as `CC(C)N1C/C(=C/c2ccccn2)C(=O)/C(=C/c2ccccn2)C1` registered its IC50 at 5.78 µM

The molecule identified as `CC(=O)Nc1ccc(C)cc1S(=O)(=O)NCCn1c(C)nc2ccccc21` registered its IC50 at > 41.7 µM

The molecule identified as `Cc1nn2c3c(nnc2c1-c1ccccc1)C(=O)CCC3` registered its IC50 at 18.1 µM

The molecule identified as `CCc1c(C)nc(-n2nc(C)cc2NC(=O)c2ccccc2Cl)[nH]c1=O` registered its IC50 at > 20.8 µM

The molecule identified as `Cc1ccccc1C(=O)O/N=C(\N)c1ccccc1` registered its IC50 at > 20.8 µM

The molecule identified as `CN(C)c1ccc(C2=Nc3cccc4cccc2c34)cc1` registered its IC50 at > 41.7 µM

The molecule identified as `CC(C)NC[C@]1(C)CCC[C@]2(C)c3ccc(C(C)C)cc3CC[C@@H]12` registered its IC50 at > 41.7 µM

The molecule identified as `O=C(NCCCN1CCCC1)c1ccc(-c2ccccc2)s1` registered its IC50 at > 20.8 µM

The molecule identified as CC1CCc2nc(SC3CC(=O)C4OCC3O4)nc(C(F)(F)F)c2C1 (configuration not stated) registered its IC50 at > 20.8 µM

====

measurement_protocol: DNDI: Cytotoxicity against human MRC-5 lung fibroblast cells.
protocol_conditions: IC50
pIC50: −log10 of the molar value.
Field: pIC50. Provide a value for each of the compounds that follow.

The compound identified as `Cc1nc2c(cc(O)c3ccccc32)s1` registered its pIC50 at < 4.38

The compound identified as CCC(=O)N(CC(CC(C)C)N1CCN(C)CC1)c1ccc(C2CCCC2)cc1 (configuration not stated) registered its pIC50 at < 4.38

The compound identified as `CN(C)CCCN(C)Cc1ccccc1Sc1ccc2ccccc2c1` registered its pIC50 at < 4.38

The compound identified as `CN1CCN(Cc2cc(Br)c3cccnc3c2O)CC1` registered its pIC50 at < 5.38

The compound identified as `COc1ccc(/C(N)=N/OC(=O)c2cc(OC)c(OC)cc2OC)cc1OC` registered its pIC50 at < 4.38

The compound identified as `CCN1/C(=C/C=C/c2sc3c(C)cccc3[n+]2CC)Sc2c(C)cccc21` registered its pIC50 at < 4.68

The compound identified as `CC(=O)Cc1ccc2cccc(O)c2n1` registered its pIC50 at < 5.38

The compound identified as CN1CCN(C2Cc3ccc(F)cc3Sc3ccc(O)cc32)CC1 (configuration not stated) registered its pIC50 at < 4.38

The compound identified as COc1ccc(NCC2COc3ccccc3C2=O)cc1 (configuration not stated) registered its pIC50 at < 4.38

The compound identified as `CC(C)CC(=O)/C(=C/c1ccc(Cl)cc1Cl)n1cncn1` registered its pIC50 at < 4.68

The compound identified as `CCOC(=O)N1CCN(C2=C(NC(C)=O)C(=O)c3ccccc3C2=O)CC1` registered its pIC50 at < 4.38

The compound identified as CCOc1ccc(C2=CC(C(C(C)=O)C(C)=O)c3ccccc3O2)cc1 (configuration not stated) registered its pIC50 at < 4.38
